The origin of these recorded values is the supplement of paper PMC9170038.

System: MS2 coat protein
MEASUREMENT_NOTES: apparent KD of MS2 coat protein; designed switch direction (-1 OFF switch, 1 ON switch): -1; higher = weaker reporter binding
REPORTED_CONDITIONS: Eterna round: R98; input ligand: FMN 200 uM
MEASURED_PARAMETER: apparent KD of MS2 coat protein (nM)

| SEQUENCE_TEXT | MEASURED_NUMBER |
| --- | --- |
| AAAGUCGAGAAGAUAAUAAUGAAUACAUGAGGAUCACCCAUGUAGGAUAUGCAGUGGAAUACACUGCAGAAGGACAUACUCGAC [Exclusion NG 3/16-B1] | 16.4 |
| UCUUAAAUGAUCCUAUUUACCAACAUGAGGAUCACCCAUGUGCAGGAUAUGCUAAAGAUAGAUAAGCAGAAGGGCAUUAACCGC [JR_ExcNG3_Sub006] | 244 |
| CACGACAGGAAACGGAGCGGCCAACAUGAGGAUCACCCAUGUGAGGAUAUGCCUACUAAAAGUAGGCAGAAGGCACAGAAGGCA [Ex NG2 #73] | 136 |
| UUGCAUUGAUGAGGAUAUGGACAUGAGGAUCACCCAUGUUGGGCGGGUAUGAUUUCCGAGGGAGGCUAGAAGGCGUAUUAUGUU [Exclusion NG 2] | 60.8 |
| GCUGCAAAGUAAGGAUAUGCCUAGGAAACCUAGGCAGAAGGUACAUGAGGAUCACCCAUGUUAACUGAAACAGAAUAAAGCAGC [Thrunch 6 - Jieux - Exclusion NG 1] | 23.2 |
| GCGUAAAAGAUCCUAUUUAUCUACAUGAGGAUCACCCAUGUGCAGGAUAUGCUAUAUUUAAUAAAGCAGAAGGGCAAUAACCGC [JR_ExcNG3_Sub009] | 281 |
| GGUUAUAUAACAUGAGGAUCACCCAUGUGAGUGGUCCGAAGCUAGGAUAUCCACACGAGAAGUGUGGAGAAGGAGCAUUCAUUA [AK-NGROCr2-ExNG3-7] | 159 |
| AGGUGGGUGCUGCAGUGAUAUACAUGAGGAUCACCCAUGUCCGAGGAUAUGCGGCAAACACGCCAGCAGAAGGCGGAGAAAAUG [Soorisrila] | 154 |
| GCACUGGAUGUAGGAUAUCAGGACGAUAAGUCCUGAGAAGGACAUGAGGAUCACCCAUGUAAAUACUCCCAGUGCAAUAAUAUA [Denovo Exng1 21] | 16.6 |
| AAUUAAUUAAUUAAUUGGACUGAUACAUGAGGAUCACCCAUGUAGGAUAUGCAGUGGAAUACACUGCAGAAGGACAUACAGUCC [Exclusion NG 3/1-B2] | 18.3 |
| AGUACUCCAGAAGGAUAUGCGUCGGUGGAUGUCCUUAGGCGGACGGUCACAUGAGGAUCACCCAUGUAGAAGGUCUGGGAGCCA [Leesla] | 87.3 |

* * *

Tested on: MS2 coat protein
MEASUREMENT_NOTES: apparent KD of MS2 coat protein; higher = weaker reporter binding
REPORTED_CONDITIONS: Eterna round: R107; input ligand: theophylline 20 uM

| SEQUENCE_TEXT | apparent KD of MS2 coat protein, nM |
| --- | --- |
| UUGUUGUUUGGAAGGAGCGUGGAUGAGUGUGGACAUGAGGAUCACCCAUGUUGGAUGAUACCGCAGGUAGGUCGCCGGGUGGUGG [11.aD] | 162 |
| CACAUGAGGAUCACCCAUGUCUGAACUGAAGGAGCGCUAAACAAGGCAGGUAGGUCGCGGAAUUUUGUGUGCAUAUGCAUAUGGG [9.N] | 36.3 |
| UUACCGUAAGGUAUACCGGUCCACAAUAAUCGAGGACCGGUACGGCCGCCACUCGAUGUGUGAUCACAUGAGGAUCACCCAUGUA [Tryptophan A 20] | 460 |
| GCUGCUUUGGGAAGGAGCGCUGCGGUAUUGUGGCGGACAUGAGGAUCACCCAUGUGCCUGCAGCAGGUAGGUCGCUUAGGGCAGC [EAP NP+V+V2 #17] | 92 |
| CAAAAUAUAACGGCCGCCACUUACUCAUGAGGUAACAACAUGAGGAUCACCCAUGUUUGAGGAUCAAGGACCGGGUUAUAUUUUG [AstrosSSTry#21] | 34.9 |
| UGGGUUGGACCAGGAAAUGGUCUGACUCACCGAGGACCGGUACGGCCGCCACUCGUAGGUACAUGAGGAUCACCCAUGUCGGUGG [#1 Same State - Tryptophan A Attempt #11 (HarryS)] | 34.2 |
